Test system: SK-OV-3
assay_comment: Antiproliferative activity against human SK-OV-3 cells assessed as suppression ratio at 5 uM by enzyme-linked immunosorbent assay relative to control
Format: functional
Reported inhibition at 5 µM is given for each of the following molecules.
observable: inhibition at 5 µM (%)

[
  {
    "molecule": "Cn1cc(COP(=O)(NCCBr)NCCBr)nc1[N+](=O)[O-]",
    "unit_symbol": "%",
    "numeric_result": -14
  },
  {
    "molecule": "CCn1cc(COP(=O)(NCCBr)NCCBr)nc1[N+](=O)[O-]",
    "unit_symbol": "%",
    "numeric_result": -3
  },
  {
    "molecule": "CC(C)n1cnc([N+](=O)[O-])c1COP(=O)(NCCCl)NCCCl",
    "unit_symbol": "%",
    "numeric_result": 11
  },
  {
    "molecule": "CCCn1cnc([N+](=O)[O-])c1COP(=O)(NCCBr)NCCBr",
    "unit_symbol": "%",
    "numeric_result": 3
  },
  {
    "molecule": "Cn1c(COP(=O)(NCCBr)NCCBr)cnc1[N+](=O)[O-] [EVOFOSFAMIDE]",
    "unit_symbol": "%",
    "numeric_result": 10
  }
]

Data origin, for the record: ChEMBL document CHEMBL6182853
